// provenance: the Immune Epitope Database (IEDB)

target: HLA-A*31:01; test: IEDB peptide-MHC binding, purified MHC/direct/fluorescence; filed as Kd, often an IC50 or EC50 that approximates it; bounds were set here for any values at or beyond the usual limits of such assays; details: source organism: Camelpox virus M-96
test-readout: Kd

The sequence `EYYFRNEVF` , tested on HLA-A*31:01, showed Kd of ≥ 20 µM

====

target: HLA-A*11:01; test: IEDB peptide-MHC binding, purified MHC/direct/fluorescence; filed as Kd, often an IC50 or EC50 that approximates it; bounds were set here for any values at or beyond the usual limits of such assays; conditions: source organism: Giardia lamblia ATCC 50803
test-readout: Kd

Sample records with Kd:
SHSIPNGLL; ≥ 20 µM
ETESVNSNY; ≥ 20 µM

Entry `WLKEKHEEL` , Kd reported as ≥ 20 µM

====

molecular target: HLA-A*11:01; experiment: IEDB peptide-MHC binding, purified MHC/direct/fluorescence; filed as Kd, often an IC50 or EC50 that approximates it; bounds were set here for any values at or beyond the usual limits of such assays; conditions: source organism: West Nile virus
test-readout: Kd

Illustrative cases are given below, each with its answer.
GVNKQTAMK; 0.0203 µM
TSDYINTSL; ≥ 20 µM
GLYKSAPRR; ≥ 20 µM

// Kd value for `VLSLIGLKR` : ≥ 20 µM

====

molecular target: HLA-A*26:01; test: IEDB peptide-MHC binding, purified MHC/competitive/fluorescence; filed as Kd, often an IC50 or EC50 that approximates it; bounds were set here for any values at or beyond the usual limits of such assays; conditions: source organism: Cryptosporidium parvum Iowa II
test-readout: Kd

KLYLRPWWH; ≥ 20 µM

Form: sequence = `ERTDLFFPV` ; Kd = ≥ 20 µM

====

molecular target: HLA-A*30:01; test: IEDB peptide-MHC binding, purified MHC/competitive/radioactivity; filed as Kd, often an IC50 or EC50 that approximates it; bounds were set here for any values at or beyond the usual limits of such assays; settings: source organism: Dengue virus 4 Philippines/H241/1956
Below, each entry is listed with its recorded pKd.
# reply with the number alone; pKd is -log10 of concentration in mol/L

Examples with answers:
LCRTSCLQK; 5.87
KMKKKTWLV; 7.76
ISKVRSNAA; 6.15

Please examine the following record next.
Sample `MAICSAVPTE` ; pKd observed: 4.97

====

target: HLA-A*02:01; test: IEDB peptide-MHC binding, purified MHC/competitive/radioactivity; filed as Kd, often an IC50 or EC50 that approximates it; bounds were set here for any values at or beyond the usual limits of such assays; conditions: source organism: Hepatitis B virus
test-readout: Kd

// Kd lookup, sequence = `PLEEELPR` , result: ≥ 25 µM

====

target: HLA-B*39:01; test: IEDB peptide-MHC binding, purified MHC/competitive/fluorescence; filed as Kd, often an IC50 or EC50 that approximates it; bounds were set here for any values at or beyond the usual limits of such assays; settings: source organism: Reston ebolavirus
pKd: −log10 of the molar value.
test-readout: pKd

Noted for `WFQRIPLQW` : its pKd reads ≤ 4.70

====

molecular target: HLA-B*15:01; test: IEDB peptide-MHC binding, purified MHC/direct/fluorescence; filed as Kd, often an IC50 or EC50 that approximates it; bounds were set here for any values at or beyond the usual limits of such assays; details: source organism: Haemophilus influenzae
Recorded Kd for the following sequences
The answer is to be given in nM; state only the numeric part.

ILKEHVSRY; 531

Field: next sequence
Please fill in: Kd reported for `EQFPNATAF` = 42.3

====

molecular target: HLA-A*02:01; assay: IEDB peptide-MHC binding, purified MHC/competitive/fluorescence; filed as Kd, often an IC50 or EC50 that approximates it; bounds were set here for any values at or beyond the usual limits of such assays; settings: source organism: Vaccinia virus Copenhagen
test-readout: pKd
Expect pKd as a plain number equal to -log10 of the molar concentration.

Record `ILLSCIHTT` has HLA-A*02:01 pKd equal to 8.92

====

target: HLA-A*33:01; test: IEDB peptide-MHC binding, purified MHC/competitive/radioactivity; filed as Kd, often an IC50 or EC50 that approximates it; bounds were set here for any values at or beyond the usual limits of such assays; conditions: source organism: Hepatitis C virus (isolate 1)
pKd: −log10 of the molar value.
test-readout: pKd

Input `ATDALMTGY` . Output pKd: ≤ 4.11

====

Measured pIC50, listed per entry for reference.
biological target: HLA-A*11:01; test: IEDB peptide-MHC binding, purified MHC/competitive/fluorescence; bounds were set here for any values at or beyond the usual limits of such assays; conditions: source organism: Vaccinia virus
pIC50: −log10 of the molar value.

AMEKSSKYY; ≤ 3.71

# lookup: `GVVVSTNRL` on HLA-A*11:01, pIC50 = ≤ 4.10

====

biological target: HLA-A*02:01; assay: IEDB peptide-MHC binding, purified MHC/competitive/fluorescence; bounds were set here for any values at or beyond the usual limits of such assays; conditions: source organism: Vaccinia virus
test-readout: pIC50
Give only the number. pIC50 is defined as minus log10 of concentration in molar units.

Noted for `GVVVSTNRL` : its pIC50 reads 5.02

====

biological target: HLA-A*03:01; test: IEDB peptide-MHC binding, purified MHC/competitive/radioactivity; filed as Kd, often an IC50 or EC50 that approximates it; bounds were set here for any values at or beyond the usual limits of such assays; conditions: source organism: Mammarenavirus whitewaterense
test-readout: Kd

Query `SFKDQSKYCH` on HLA-A*03:01; Kd returned: ≥ 70 µM

====

molecular target: HLA-A*02:01; test: IEDB peptide-MHC binding, purified MHC/competitive/radioactivity; filed as Kd, often an IC50 or EC50 that approximates it; bounds were set here for any values at or beyond the usual limits of such assays; settings: source organism: Trypanosoma cruzi
test-readout: Kd (nM)
# number only, unit nM dropped from output

LLGLWGLAAL; 50.7

We next turn to a different sequence, shown below.
Per the records, this sequence ( `FANHAFTLV` ) has Kd equal to 68.7

====

target: HLA-B*39:01; assay: IEDB peptide-MHC binding, purified MHC/competitive/fluorescence; filed as Kd, often an IC50 or EC50 that approximates it; bounds were set here for any values at or beyond the usual limits of such assays; conditions: source organism: Zaire ebolavirus
Kd listing for selected sequences.

AFHQLVQVI; ≥ 20 µM

Now look at this one.
The sequence listed as `TAAIMLASY` has a reported Kd of ≥ 20 µM

====

target: HLA-B*15:01; assay: IEDB peptide-MHC binding, purified MHC/direct/fluorescence; filed as Kd, often an IC50 or EC50 that approximates it; bounds were set here for any values at or beyond the usual limits of such assays; settings: source organism: Escherichia coli O6
test-readout: Kd

The reported value for `TPVWHVTSA` in terms of Kd is ≥ 20 µM

====

target: HLA-B*08:01; experiment: IEDB peptide-MHC binding, purified MHC/competitive/fluorescence; bounds were set here for any values at or beyond the usual limits of such assays; conditions: source organism: Zaire ebolavirus
test-readout: pIC50
Would you please state pIC50, meaning minus log10 of the concentration in mol/L, as a bare number?

sequence `RFKRTSFFL` , pIC50 observed: 4.58

====

biological target: HLA-A*24:03; experiment: IEDB peptide-MHC binding, purified MHC/direct/fluorescence; filed as Kd, often an IC50 or EC50 that approximates it; bounds were set here for any values at or beyond the usual limits of such assays; conditions: source organism: Escherichia coli O6
test-readout: Kd

The reported Kd of the sequence `TPVWHVTSA` was ≥ 20 µM

====

biological target: HLA-A*30:02; assay: IEDB peptide-MHC binding, purified MHC/competitive/radioactivity; filed as Kd, often an IC50 or EC50 that approximates it; bounds were set here for any values at or beyond the usual limits of such assays; details: source organism: Mammarenavirus juninense
test-readout: Kd

Form field Kd, entry `KAEVSMHEV` : ≥ 51.9 µM

====

target: HLA-A*23:01; test: IEDB peptide-MHC binding, purified MHC/competitive/fluorescence; filed as Kd, often an IC50 or EC50 that approximates it; bounds were set here for any values at or beyond the usual limits of such assays; conditions: source organism: Escherichia coli O157:H7 str. EDL933
test-readout: Kd

get_value(item= `YVLNGYTEF` , readout=Kd) returns ≤ 1 nM

====

target: HLA-A*29:02; assay: IEDB peptide-MHC binding, purified MHC/competitive/radioactivity; filed as Kd, often an IC50 or EC50 that approximates it; bounds were set here for any values at or beyond the usual limits of such assays; settings: source organism: Mammarenavirus lassaense
pKd: −log10 of the molar value.
test-readout: pKd

RYWYLNHTV; ≤ 4.41

# next sequence below
So, `ESDGKPQKV` ? Its pKd was ≤ 4.10

====

biological target: HLA-A*03:01; assay: IEDB peptide-MHC binding, purified MHC/competitive/radioactivity; filed as Kd, often an IC50 or EC50 that approximates it; bounds were set here for any values at or beyond the usual limits of such assays; conditions: source organism: Dengue virus 2 Jamaica/1409/1983
test-readout: pKd
pKd here: minus log base 10 of the concentration, concentration in moles per litre.

Entry `ALFLEEMLR` : pKd on HLA-A*03:01 = 6.52
